TARGET_OF_ASSAY: HLA-A*30:02 (Homo sapiens, UniProt P04439, D101N/D140H/D185E/E176R/F33S/G80R/H175R/K168Q/Q94H/R138E/R41S/V100E)
Assay type: binding
CONDITION_DESCRIPTION: percent relative the binding of positive control peptide […]; duplicated experiments; positive binder >40%
# key: entry, value: Bind A*30:02
Only the number, expressed in %, is required.

Solved entries (count: 2):
GTPNELGGA
0
CGKAGCQT Y
138

Now let's try a different one.
Supply reported Bind A*30:02 belonging to this substance: `GGYKAADMW`
0

This collection of values is drawn from paper PMC3608651.
